Activity listing for selected compounds.
- Tested on: Escherichia coli
- testSummary: Antibacterial activity against acrA gene deficient Escherichia coli assessed as reduction in bacterial cell viability at 0.1 to 100 uM incubated for 16 hrs relative to control
- Format: functional

{"columns": ["entrySmiles", "readoutUnit", "Activity"],
 "data": [
  ["NCCCC[C@H](NC(=O)[C@H](CCCCN)NC(=O)CCC(=O)OC[C@@H](NC(=O)C(Cl)Cl)[C@H](O)c1ccc([N+](=O)[O-])cc1)C(=O)O", "%", 50],
  ["O=C(O)CNC(=O)[C@@H](CO)NC(=O)CCC(=O)OC[C@@H](NC(=O)C(Cl)Cl)[C@H](O)c1ccc([N+](=O)[O-])cc1", "%", 40],
  ["O=C(CCC(=O)OC[C@@H](NC(=O)C(Cl)Cl)[C@H](O)c1ccc([N+](=O)[O-])cc1)NCC(=O)N[C@H](CO)C(=O)O", "%", 30],
  ["NCCCC[C@@H](NC(=O)[C@@H](CCCCN)NC(=O)CCC(=O)OC[C@@H](NC(=O)C(Cl)Cl)[C@H](O)c1ccc([N+](=O)[O-])cc1)C(=O)O", "%", 20]
]}
